For each of the molecules below, state its %Inh.
Tested on: MAP3K3;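 also: KINOMEscan kinase panel screen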
settings: concentration: 1 μM,replicates: in singlicate; n = 1
Number only, in %; omit the unit.

Ask | Fill in: %Inh of `O=C1NCCc2[nH]c(-c3ccncc3)cc21` is ___
Reply | 23

Ask | Please give the result for `CN1CCN(CCNc2nc3cc(Oc4ccc(NC(=O)Nc5cc(C(F)(F)F)ccc5F)cc4)ccc3[nH]2)CC1.Cl.Cl` too.
Reply | 0

Ask | Please give the result for `O=C(Nc1cccc(C(F)(F)F)c1)c1cccc(Oc2ccc3nccn3n2)c1` too.
Reply | 0

Ask | Please give the result for `CCN1CCN(CCCC(=O)Nc2n[nH]c3nc(-c4ccc(O)cc4)c(Br)cc23)CC1` too.
Reply | 0

Ask | Please give the result for `COC(=O)Nc1nc2cc(Oc3ccc(NC(=O)Nc4cc(C(F)(F)F)ccc4Cl)cc3)ccc2[nH]1.Cl` too.
Reply | 0

Ask | Please give the result for `c1ccc(Oc2ccc(Nc3ccnc4ccc(-c5ccccn5)cc34)cc2)cc1` too.
Reply | 0

Ask | Please give the result for `COc1cc2c(Nc3ccc(NC(=O)c4ccccc4)cc3)ncnc2cc1OCCCN1CCOCC1` too.
Reply | 0

Ask | Please give the result for `Cl.Nc1n[nH]c2cc(-c3ccccn3)ccc12` too.
Reply | 0

Ask | Please give the result for `CSc1nccc(-c2c(-c3ccc(F)cc3)ncn2CCCN2CCOCC2)n1.Cl` too.
Reply | 1

Ask | Please give the result for `COc1cccc(OC)c1C(=O)Nc1cccc(-c2nn3ccccc3c2-c2ccnc(Nc3cccc(F)c3)n2)c1` too.
Reply | 43
